B1: Triacylglycerol hydrolase DDHD2, residues 389 to 447; numbered along this chain, O94830 (parent)
chain: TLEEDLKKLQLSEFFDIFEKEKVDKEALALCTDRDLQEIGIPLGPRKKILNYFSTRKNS

- Variants of: B1
- testSummary: abundance fitness (aPCA) (normalised: wild type 0, dead -1); higher = more abundant; growth selection in yeast, the domain comes from the species named
- appliedConditions: Homo sapiens
Provide the recorded abundance fitness for the entries that follow.
Keep it simple and answer with nothing but the number.

What does the data say about its abundance fitness? Entry: `I41W`
-0.831

What does the data say about its abundance fitness? Entry: `L50G`
-0.291

What does the data say about its abundance fitness? Entry: `K7N`
-0.153

What does the data say about its abundance fitness? Entry: `G40D`
-0.572

What does the data say about its abundance fitness? Entry: `A27P`
-0.355

What does the data say about its abundance fitness? Entry: `I49E`
-0.052

What does the data say about its abundance fitness? Entry: `E3V`
-0.454

What does the data say about its abundance fitness? Entry: `L6W`
-0.45

What does the data say about its abundance fitness? Entry: `P42L`
-0.958

What does the data say about its abundance fitness? Entry: `A27Y`
0.6

What does the data say about its abundance fitness? Entry: `G40T`
-0.67
